Numbers sourced from PubChem BioAssay (NCI).

# TGI per entry
test system: U251 CNS; test: NCI tumour cell line growth inhibition, 48 h
measured.metric: TGI

INSERT INTO results (compound, obs_value) VALUES
  ('COc1cc(/C=C2\C(=O)N(C)c3ccccc32)cc(OC)c1OC', '41.7 µM'),
  ('Cn1ccnc1C(=O)/C=C/c1ccc(C(=O)Nc2c(F)c(F)c(F)c(F)c2F)cc1', '2.34 µM'),
  ('CC(=O)O[C@H]1C(=O)[C@@]2(C)[C@H]([C@H](OC(=O)c3ccco3)[C@]3(O)C[C@H](OC(=O)[C@H](O)[C@@H](NC(=O)c4ccccc4)c4ccccc4)C(C)=C1C3(C)C)[C@]1(OC(C)=O)CO[C@@H]1C[C@@H]2O', '> 25 µM'),
  ('Nc1ncc(C2[C@H](CNC(=O)c3cc(Br)c[nH]3)C(CNC(=O)c3cc(Br)c[nH]3)[C@@H]2c2cnc(N)[nH]2)[nH]1 (stereo partly drawn)', '> 50 µM'),
  ('Nc1ccc(C(=O)/C=C/c2ccccc2O)cc1', '> 100 µM'),
  ('CNCc1cccc2c1OCCOCCOCCC(C)S(=O)(=O)c1ccc(cc1)-c1cnc(N)c(n1)C(=O)N2 (stereo not drawn)', '3.62 µM'),
  ('COc1ccc(CC[N+]2(C)COc3cc4oc(=O)cc(C)c4cc3C2)cc1OC (stereo not drawn)', '> 100 µM'),
  ('CC1CC(C)C(C(O)CC2CC(=O)N(c3ccccc3)C(=O)C2)C(O)C1 (stereo not drawn)', '> 100 µM');

----------
tested on: OVCAR-5 ovarian; experiment: NCI tumour cell line growth inhibition, 48 h
measured.metric: TGI (µM)

INSERT INTO assay_data (molecule, measured_metric, result_comparator, obs_value) VALUES
  ('c1ccc(Nc2nnc(CCCCCCCCc3nnc(Nc4ccccc4)o3)o2)cc1', 'TGI', '>', 100),
  ('CC1(C)CC[C@]2(C(=O)O)CC[C@]3(C)C(=CC[C@@H]4[C@@]5(C)C/C(=C/c6ccco6)C(=O)C(C)(C)[C@@H]5CC[C@]43C)[C@@H]2C1', 'TGI', '=', 32.5),
  ('Cc1cc(Nc2ccc(Cl)cc2)nc(NCCCNc2ccnc3cc(Cl)ccc23)n1', 'TGI', '=', 3.09),
  ('CC1=C2[C@@H](CC1)[C@]1(C)O[C@@](C3CC3)(C[C@H]1OC(=O)CO)[C@H]2OC(=O)/C=C/c1ccccc1', 'TGI', '=', 36.5),
  ('C/C(Nc1ccc(Cl)cc1)=C1/CCOC1=O', 'TGI', '>', 100),
  ('CC(C)(CN1CCCCC1)C(=O)CC(SCCS(=O)(=O)O)c1ccc(Cl)cc1 (stereo unspecified)', 'TGI', '=', 11.4);

----------
test system: OVCAR-3 ovarian; assay: NCI tumour cell line growth inhibition, 48 h
# TGI per entry
measured.metric: TGI

INSERT INTO measurements (compound, system_name, measured_metric, obs_value) VALUES
  ('O=C(O)Cn1ccc(=O)c2cc([N+](=O)[O-])ccc21', 'OVCAR-3 ovarian', 'TGI', '> 100 µM'),
  ('CC(=O)NN(c1ccccc1)C1CCN(c2ccccc2)N1C(C)=O (stereo not drawn)', 'OVCAR-3 ovarian', 'TGI', '> 10 µM'),
  ('CN(C)c1ccc(N=C2C=CC(=C(C#N)C#N)c3ccccc32)cc1', 'OVCAR-3 ovarian', 'TGI', '1.46 µM'),
  ('CCC1CN2CCc3c([nH]c4ccccc34)[C@@](C(=O)OC)(c3cc4c(cc3OC)N(C)C3C(O)(C(=O)OC)C(C(=O)OC)C5(CC)C=CCN6CCC43C65)C[C@@H](C2)[C@@H]1C(C)(C)C (stereo partly drawn)', 'OVCAR-3 ovarian', 'TGI', '> 2.85 µM'),
  ('C=CCNC1=C2C[C@@H](C)C[C@@H](OC)[C@H](OC(=O)CCN(C)C)[C@H](C)/C=C(\C)[C@@H](OC(N)=O)[C@H](OC)/C=C\C=C(/C)C(=O)NC(=CC1=O)C2=O', 'OVCAR-3 ovarian', 'TGI', '3.61 µM'),
  ('COc1ccc2c(c1)[n+](=O)c(C(C)=O)c(C)n2[O-]', 'OVCAR-3 ovarian', 'TGI', '> 100 µM'),
  ('O=c1[nH]c2ccc([N+](=O)[O-])cc2nc1/C(=N/Nc1ccccc1)C(O)c1ccco1 (stereo not drawn)', 'OVCAR-3 ovarian', 'TGI', '> 100 µM'),
  ('OCC(O)C(O)C(O)C(O)c1nn[nH]n1 (stereo not drawn)', 'OVCAR-3 ovarian', 'TGI', '> 100 µM');
